Tested on: HTT mRNA
methodDescription: Splicing RT-qPCR assay (THP), Table 2A
Type: cell-based
setupConditions: Table 2A (THP), CJ mRNA decrease, read-out: HTT CJ (decrease in canonical junction mRNA, IC50)
pIC50: −log10 of the molar value. Counter-ions that a name gives are not always drawn.
endpointName: pIC50

Before answering, review these 8 worked examples.
CCNCC1CN(c2ccc(C(=O)Nc3cn4cc(C)nc(C)c4n3)c3nn(C)cc23)C1; < 5.00
CCNCC1CCN(c2cc(F)c(C(=O)Nc3cc4cn(C)nc4cc3OC)c3nn(C)cc23)C1 (centres unmarked); 6.00 to 7.00
Cc1cn2cc(NC(=O)c3c(F)cc(N4CCC(NC5CC5)CC4)c4cn(C)nc34)nc2c(CNS(C)(=O)=O)n1 [Compound 393, 2,2,2-trifluoroacetate]; < 5.00
COc1c(NC(=O)c2c(F)cc(N3CCC(NC4CC4)CC3)c3cn(C)nc23)cn2cc(C)nc2c1C#N; 6.00 to 7.00
Cc1cn2cc(NC(=O)c3c(F)cc(N4CCC(NC5CC5)CC4)c4cn(C)nc34)c(F)c2c(C)n1; < 5.00
CNC1CCN(c2cc(F)c(C(=O)Nc3cn4cc(C)nc(C)c4n3)c3nn(C)cc23)CC1; 5.00 to 6.00
CCNC1CCN(c2ccc(C(=O)Nc3cc(Oc4ccc(C)cc4)c4nc(C)cn4c3)c3nn(C)cc23)CC1 [Compound 328, 2,2,2-trifluoroacetate]; 6.00 to 7.00
Cc1cn2cc(NC(=O)c3ccc(N4C[C@H](C)N[C@@H](C)C4)c4cn(C)nc34)cc(F)c2n1; 5.00 to 6.00

[ask] Return value of pIC50 for input CCNC1CCN(c2ccc(C(=O)Nc3cc(F)c4nc(C)cn4c3)c3c2nnn3C)CC1 [Compound 198, 2,2,2-trifluoroacetate] , no commentary.
[reply] < 5.00

[ask] Return value of pIC50 for input Cc1cn2cc(NC(=O)c3c(F)cc(N4CCC(NC5CCC5)CC4)c4cn(C)nc34)nc2c(C)n1 , no commentary.
[reply] < 5.00

[ask] Return value of pIC50 for input Cc1cn2cc(NC(=O)c3ccc(N4CCC(NC5CC5)CC4)c4cn(C)nc34)cc(Oc3ccnnc3)c2n1 , no commentary.
[reply] 5.00 to 6.00

[ask] Return value of pIC50 for input Cc1cn2cc(NC(=O)c3ccc(N4CC(C5CCNCC5)C4)c4cn(C)nc34)nc2c(C)n1 , no commentary.
[reply] 5.00 to 6.00

[ask] Return value of pIC50 for input COc1cc2nn(C)cc2cc1NC(=O)c1c(N)cc(N2CCC(NC3CC3)CC2)c2cn(C)nc12 , no commentary.
[reply] < 5.00

[ask] Return value of pIC50 for input CCNC1CCN(c2cc(F)c(C(=O)Nc3cn4cc(C)nc(Cl)c4n3)c3nn(C)cc23)CC1 , no commentary.
[reply] < 5.00

[ask] Return value of pIC50 for input Cc1cn2cc(NC(=O)c3ccc(N4CCC(NC5CC5)CC4)c4cn(C)nc34)cc2c(CNS(C)(=O)=O)n1 , no commentary.
[reply] < 5.00

[ask] Return value of pIC50 for input CNCC1CCN(c2ccc(C(=O)Nc3cn4cc(C)nc(C)c4n3)c3nn(C)cc23)CC1 , no commentary.
[reply] 6.00 to 7.00

[ask] Return value of pIC50 for input CNC1CCC(Oc2ccc(C(=O)Nc3cn4cc(C)nc(C)c4n3)c3nn(C)cc23)C1 (centres unmarked) , no commentary.
[reply] < 5.00

[ask] Return value of pIC50 for input CCNC1CCN(c2cc(Cl)c(C(=O)Nc3cn4cc(C)nc(C)c4n3)c3nn(C)cc23)CC1 , no commentary.
[reply] < 5.00

[ask] Return value of pIC50 for input CCNC1CCN(c2cc(F)c(C(=O)Nc3cn4cc(C)nc(OC)c4n3)c3nn(C)cc23)CC1 , no commentary.
[reply] < 5.00

[ask] Return value of pIC50 for input Cn1cc2cc(NC(=O)c3ccc(N4CCC(NC5CC5)CC4)c4cn(C)nc34)c(C(F)(F)F)cc2n1 , no commentary.
[reply] < 5.00

[ask] Return value of pIC50 for input Cc1cn2cc(NC(=O)c3ncc(N4CCC(NC5CC5)CC4)c4cn(C)nc34)cc(F)c2n1 , no commentary.
[reply] < 5.00

[ask] Return value of pIC50 for input CCNC1CCN(c2ncc(C(=O)Nc3cn4cc(C)nc(C)c4n3)c3nn(C)cc23)CC1 , no commentary.
[reply] 5.00 to 6.00

[ask] Return value of pIC50 for input CCNC1CCN(c2ccc(C(=O)Nc3cc4cn(C)nc4cc3O)c3[nH]ccc23)CC1 , no commentary.
[reply] < 5.00

[ask] Return value of pIC50 for input COc1ccncc1NC(=O)c1c(F)cc(N2CCC(NC3CC3)CC2)c2cn(C)nc12 , no commentary.
[reply] < 5.00

[ask] Return value of pIC50 for input Cc1cn2cc(NC(=O)c3ccc(N4CCC(N[C@@H]5C[C@H]5O)CC4)c4cn(C)nc34)cc(F)c2n1 [Compound 370, hydrochloride] , no commentary.
[reply] 5.00 to 6.00

[ask] Return value of pIC50 for input Cc1cn2cc(NC(=O)c3ccc(OC4CCNCC4)c4cn(C)nc34)nc2c(C)n1 , no commentary.
[reply] 6.00 to 7.00

[ask] Return value of pIC50 for input Cc1cn2cc(NC(=O)c3ccc(N4CCC(NCC5CC5)CC4)c4cn(C)nc34)nc2c(C)n1 , no commentary.
[reply] < 5.00

[ask] Return value of pIC50 for input CCNC1CCN(c2cc(F)c(C(=O)Nc3cn4cc(C)nc4cc3OC)c3nn(C)cc23)CC1 , no commentary.
[reply] 6.00 to 7.00

[ask] Return value of pIC50 for input Cc1cn2cc(NC(=O)c3ccc(N4C[C@@H](C)N[C@@H](C)C4)c4nnn(C)c34)cc(F)c2n1 , no commentary.
[reply] < 5.00

====

Test system: MYB mRNA
methodDescription: Gene panel canonical junction qPCR assay, decrease in CJ mRNA, Table 3
Format: cell-based
setupConditions: decrease in canonical junction (CJ) mRNA, gene panel qPCR, Table 3
pIC50: −log10 of the molar value.
endpointName: pIC50

Before answering, review these 5 worked examples.
Cc1cn2cc(NC(=O)c3c(F)cc(N4CCC(NC5CC5)CC4)c4cn(C)nc34)c(Oc3ccccc3)c(F)c2n1; > 7.00
COc1c(NC(=O)c2c(F)cc(N3CCS(=N)(=O)CC3)c3cn(C)nc23)cn2cc(C)nc2c1F; 5.00 to 6.00
CCNC1CCN(c2ccc(C(=O)Nc3cc(-n4ccccc4=O)c4nc(C)cn4c3)c3nn(C)cc23)CC1; < 5.00
CNCC1CCN(c2ccc(C(=O)Nc3cn4cc(C)nc(C)c4n3)c3nn(C)cc23)CC1; 6.00 to 7.00
CCNC1CCN(c2ccc(C(=O)Nc3cn4cc(C)nc(C)c4c3F)c3nn(C)cc23)CC1; 5.00 to 6.00

[ask] Return value of pIC50 for input Cn1cc2cc(NC(=O)c3ccc(N4CCC(NC5CC5)CC4)c4cn(C)nc34)c(F)cc2n1 , no commentary.
[reply] 6.00 to 7.00

[ask] Return value of pIC50 for input Cc1cn2cc(NC(=O)c3ccc(N4CCNC(C(F)(F)F)C4)c4cn(C)nc34)cc(F)c2n1 (stereo not shown) , no commentary.
[reply] 5.00 to 6.00

====

Test system: HTT mRNA
methodDescription: Splicing RT-qPCR assay (THP), Table 2A
Type: cell-based
setupConditions: Table 2A (THP), CJ mRNA decrease, read-out: HTT CJ (decrease in canonical junction mRNA, IC50)
Form field: IC50 (one value per entry).

Before answering, review these 6 worked examples.
Cc1cc2[nH]c(NC(=O)c3ccc(N4CCC(NC5CC5)CC4)c4cn(C)nc34)nc2c(C)n1; > 10 µM
Cc1cn2cc(NC(=O)c3ccc(N4CCNC(C(F)F)C4)c4cn(C)nc34)cc(F)c2n1 (stereo not shown); 1 to 10 µM
Cc1cc2c(nc(NC(=O)c3ccc(N4CCC(NC5CC5)CC4)c4cn(C)nc34)n2C)c(C)n1; > 10 µM
CCNC1CCN(c2cc(F)c(C(=O)Nc3cn4cc(C)nc(C)c4c3F)c3nn(C)cc23)CC1; > 10 µM
Cc1cn2cc(NC(=O)c3ccc(N4CCNCC4=O)c4[nH]cnc34)cc(F)c2n1; > 10 µM
CCNCC1CCN(c2cc(F)c(C(=O)Nc3cn4cc(C)nc(C)c4n3)c3nn(C)cc23)C1 (stereo not shown); > 10 µM

[ask] Look up HTT mRNA data: IC50 of COc1cc2nn(C)cc2cc1NC(=O)c1ccc(OC2CCNC2)c2cn(C)nc12 (stereo not shown) , then report it.
[reply] 0.1 to 1 µM

[ask] Look up HTT mRNA data: IC50 of CCNC1CCN(c2ccc(C(=O)Nc3cc(F)c4nc(CC)cn4c3)c3nn(C)cc23)CC1 , then report it.
[reply] 1 to 10 µM

[ask] Look up HTT mRNA data: IC50 of COc1cn2nc(C)cc2cc1C(=O)Nc1ccc(N2CCNCC2)c2cn(C)nc12 , then report it.
[reply] > 10 µM

[ask] Look up HTT mRNA data: IC50 of COc1c(NC(=O)c2c(F)cc(N3CCC(NC4CC4)CC3)c3cn(C)nc23)cc2cn(C)nc2c1C , then report it.
[reply] 1 to 10 µM

[ask] Look up HTT mRNA data: IC50 of COc1nnccc1NC(=O)c1c(F)cc(N2CCC(NC3CC3)CC2)c2cn(C)nc12 , then report it.
[reply] 1 to 10 µM
